// reported Kd for each item listed
# target desc: human CIS lacking both the N-terminal region (residues 1-66) and the PEST motif (ΔNT/ΔPEST) in trimeric … (UniProt Q9NSE2 67-258; Q15370 1-118; Q15369 17-112)
# test: ITC
Non-standard residues stand in square brackets, D forms with d. No end group written: not given here. pY = N[C@@H](Cc1ccc(OP(=O)(O)O)cc1)C(=O)O
measure: Kd (µM)

* AIETDKE[pY]YTVKADRD [JAK1-Y1034 phosphopeptide with an alanine substitution at the +5 position] | 6.3
* AIETAKE[pY]YTVKDDRD [JAK1-Y1034 phosphopeptide with an alanine substitution at the -3 position] | 3.5
* AIETDKE[pY]YTVKDDRD [JAK1 activation loop phosphopeptide (Tyr1034 phosphorylated)] | 2.2
* AIETDKE[pY]YTAKDDRD [JAK1-Y1034 phosphopeptide with an alanine substitution at the +3 position] | 8.3
